B1: DVL3 (parent)
chain: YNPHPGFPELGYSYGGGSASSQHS

Variants of: B1
test_description: protein stability index of a GFP-peptide fusion (GPS, HEK-293T) (PSI 1-6); higher = more stable;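 note: lentivirally expressed fusions sorted by FACS into six bins by GFP to DsRed ratio, PSI derived from sequencing read proportions per bin multiplied by bin number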
test_parameters: c terminus: a fixed tail appended
observation_type: protein stability index

> print(dat)
    mutation   val
 1      G11P  2.29
 2       Y1W  3.49
 3       Y1I     3
 4      G17P  2.62
 5       F7P  3.44
 6       H4A  2.06
 7      S21G  2.61
 8      S18H  2.53
 9      S21V  3.41
10       N2S  2.72
11       G6N  2.93
